test: Antagonist activity at muscarinic M3 receptor in guinea pig trachea assessed as inhibition of carbachol-induced contraction; type: tissue-based, Cavia porcellus
Overview of reported pIC50 across a group of compounds:
Note: the reply should be a number with no unit written.

Examples with answers:
COc1ccc([C@H](Cc2c(Cl)c[n+]([O-])cc2Cl)OC(=O)c2ccc(CN(C(=O)O[C@H]3CN4CCC3CC4)c3cccc(F)c3)s2)cc1OC :: 8.1
COc1ccc([C@H](Cc2c(Cl)c[n+]([O-])cc2Cl)OC(=O)c2ccc(CN(C(=O)O[C@H]3CN4CCC3CC4)c3nccs3)s2)cc1OC :: 8.4
CC(C)Oc1cc([C@H](Cc2c(Cl)c[n+]([O-])cc2Cl)OC(=O)c2ccc(CN(C(=O)O[C@H]3CN4CCC3CC4)c3ccccc3F)s2)ccc1OC(F)F :: 7.5

Proceed to the following item.
So for COc1ccc([C@H](Cc2c(Cl)c[n+]([O-])cc2Cl)OC(=O)c2cccc(CNC(C(=O)O[C@H]3CN4CCC3CC4)c3ccccc3)c2)cc1OC (stereo in doubt; 90) , the logged pIC50 turned out to be 9.1

###

Data export: pKi values recorded with Muscarinic acetylcholine receptor M3 (Homo sapiens).
API: returns pKi as number; meaning -log10 of concentration in mol/L.

Worked cases, answers included:
COc1ccc([C@H](Cc2c(Cl)c[n+]([O-])cc2Cl)OC(=O)c2ccc(F)c(CN(C(=O)O[C@H]3CN4CCC3CC4)c3ccccc3)c2)cc1OC :: 9.70
COc1ccc([C@H](Cc2c(Cl)c[n+]([O-])cc2Cl)OC(=O)c2cccc(CNC(C(=O)O[C@H]3CN4CCC3CC4)c3ccccc3)c2)cc1OC (stereo in doubt; 90) :: 9.70

Entry COc1ccc([C@H](Cc2c(Cl)c[n+]([O-])cc2Cl)OC(=O)c2ccc(CN(C(=O)O[C@H]3CN4CCC3CC4)c3cccc(F)c3)s2)cc1OC , pKi reported as 9.70

###

molecular target: UniProt:Q07343; test: Inhibition of human recombinant PDE4B2 assessed as […] in cAMP level incubated for 2 hrs by LANCE Ultra cAMP TR-FRET assay
Here, each record is paired with measured pIC50 data.
pIC50 here: minus log base 10 of the concentration, concentration in moles per litre.

Some molecules with recorded pIC50:
COc1ccc([C@H](Cc2c(Cl)c[n+]([O-])cc2Cl)OC(=O)c2ccc(CNC(C(=O)OCCN(C)C)c3ccccc3)s2)cc1OC (stereo in doubt; 91j) :: 9.00
COc1ccc([C@H](Cc2c(Cl)c[n+]([O-])cc2Cl)OC(=O)c2ccc(CNC(C(=O)OC3CCN(C)CC3)c3ccccc3)s2)cc1OC (stereo in doubt; 91e) :: 9.00
COc1ccc([C@H](Cc2c(Cl)c[n+]([O-])cc2Cl)OC(=O)c2ccc(CN(C(=O)O[C@H]3CN4CCC3CC4)c3ccccc3)s2)cc1OC :: 9.00
COc1ccc([C@H](Cc2c(Cl)c[n+]([O-])cc2Cl)OC(=O)c2ccc(CN(C(=O)O[C@H]3CN4CCC3CC4)c3nccs3)s2)cc1OC :: 9.20
COc1ccc([C@H](Cc2c(Cl)c[n+]([O-])cc2Cl)OC(=O)c2ccc(CNC(C(=O)O[C@H]3CN4CCC3CC4)c3ccccc3F)s2)cc1OC (stereo in doubt; 91b) :: 9.20

Lookup result for COc1ccc([C@H](Cc2c(Cl)c[n+]([O-])cc2Cl)OC(=O)c2ccc(CNC(C(=O)O[C@@H]3CCN(C)C3)c3ccccc3)s2)cc1OC (stereo in doubt; 92f) ; measured pIC50: 8.80

COc1ccc([C@H](Cc2c(Cl)c[n+]([O-])cc2Cl)OC(=O)c2ccc(CN(C(=O)O[C@H]3CN4CCC3CC4)c3cccc(F)c3)s2)cc1OC yielded pIC50 of 9.00

For COc1ccc([C@H](Cc2c(Cl)c[n+]([O-])cc2Cl)OC(=O)c2ccc(CN(C(=O)O[C@H]3CN4CCC3CC4)c3cccc(O)c3)s2)cc1OC the molecule record lists pIC50 as 9.10

###

target: Muscarinic acetylcholine receptor M3 (Homo sapiens, UniProt P20309)
Sequence (P20309 whole entry): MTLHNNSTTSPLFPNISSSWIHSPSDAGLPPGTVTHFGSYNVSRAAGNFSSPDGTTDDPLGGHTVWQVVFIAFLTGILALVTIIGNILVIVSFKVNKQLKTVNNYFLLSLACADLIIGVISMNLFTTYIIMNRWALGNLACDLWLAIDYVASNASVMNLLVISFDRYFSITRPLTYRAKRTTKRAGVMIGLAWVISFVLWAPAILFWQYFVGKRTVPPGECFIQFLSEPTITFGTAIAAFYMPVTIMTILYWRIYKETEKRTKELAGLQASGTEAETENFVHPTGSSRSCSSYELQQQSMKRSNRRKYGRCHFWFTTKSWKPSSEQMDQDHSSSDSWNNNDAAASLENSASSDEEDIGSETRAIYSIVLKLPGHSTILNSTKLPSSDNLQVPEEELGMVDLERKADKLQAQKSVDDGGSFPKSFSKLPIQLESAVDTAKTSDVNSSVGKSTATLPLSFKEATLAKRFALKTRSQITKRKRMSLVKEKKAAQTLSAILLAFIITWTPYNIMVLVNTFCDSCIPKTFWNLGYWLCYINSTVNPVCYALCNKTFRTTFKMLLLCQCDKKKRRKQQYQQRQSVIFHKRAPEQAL
Measure name: Ki
Answer with the value and then the unit.

Worked examples, 2 molecules total:
COc1ccc([C@H](Cc2c(Cl)c[n+]([O-])cc2Cl)OC(=O)c2ccc(CN(C(=O)O[C@H]3CN4CCC3CC4)c3cccc(C(F)F)c3)s2)cc1OC :: 3160 pM
COc1ccc([C@H](Cc2c(Cl)c[n+]([O-])cc2Cl)OC(=O)c2ccc(CN(C(=O)O[C@H]3CN4CCC3CC4)c3ccccc3)cc2)cc1OC :: 158 pM

The measured Ki that COc1ccc([C@H](Cc2c(Cl)c[n+]([O-])cc2Cl)OC(=O)c2ccc(CN(C(=O)O[C@H]3CN4CCC3CC4)c3cccc(O)c3)s2)cc1OC showed for Muscarinic acetylcholine receptor M3 (Homo sapiens, UniProt P20309) is 316 pM

Log: Muscarinic acetylcholine receptor M3 (Homo sapiens, UniProt P20309), molecule COc1ccc([C@H](Cc2c(Cl)c[n+]([O-])cc2Cl)OC(=O)c2ccc(CN(C(=O)O[C@H]3CN4CCC3CC4)c3nccs3)s2)cc1OC , Ki = 794 pM

Value (Ki, Muscarinic acetylcholine receptor M3 (Homo sapiens, UniProt P20309)) for record COc1ccc([C@H](Cc2c(Cl)c[n+]([O-])cc2Cl)OC(=O)c2ccc(CN(C(=O)O[C@H]3CN4CCC3CC4)c3cccnc3)s2)cc1OC = 7940 pM

Value (Ki, Muscarinic acetylcholine receptor M3 (Homo sapiens, UniProt P20309)) for record COc1ccc([C@H](Cc2c(Cl)c[n+]([O-])cc2Cl)OC(=O)c2ccc(CN(C(=O)O[C@H]3CN4CCC3CC4)c3ccccc3)cc2F)cc1OC = 158 pM

Measured Ki (Muscarinic acetylcholine receptor M3 (Homo sapiens, UniProt P20309)), entry COc1ccc([C@H](Cc2c(Cl)c[n+]([O-])cc2Cl)OC(=O)Cc2ccc(CN(C(=O)O[C@H]3CN4CCC3CC4)c3ccccc3)cc2)cc1OC : 316 pM

Lab entry: Muscarinic acetylcholine receptor M3 (Homo sapiens, UniProt P20309) assay, molecule O=C(O[C@@H](Cc1c(Cl)c[n+]([O-])cc1Cl)c1ccc(OC(F)F)c(OCC2CC2)c1)c1cccc(CNC(C(=O)O[C@H]2CN3CCC2CC3)c2ccccc2)c1 (stereo not given in full) , Ki = 631 pM

Record COc1ccc([C@H](Cc2c(Cl)c[n+]([O-])cc2Cl)OC(=O)c2ccc(CN(C(=O)O[C@H]3CN4CCC3CC4)c3ccccc3F)s2)cc1OC / Muscarinic acetylcholine receptor M3 (Homo sapiens, UniProt P20309), Ki recorded as 126 pM

For COc1ccc([C@H](Cc2c(Cl)c[n+]([O-])cc2Cl)OC(=O)c2cccc(S(=O)(=O)NC(C(=O)O[C@H]3CN4CCC3CC4)c3ccccc3)c2)cc1OC (stereo not given in full) on Muscarinic acetylcholine receptor M3 (Homo sapiens, UniProt P20309), measured Ki was 631 pM

Simply: CCOc1cc([C@H](Cc2c(Cl)c[n+]([O-])cc2Cl)OC(=O)c2ccc(CN(C(=O)O[C@H]3CN4CCC3CC4)c3ccccc3F)s2)ccc1OC(F)F , Muscarinic acetylcholine receptor M3 (Homo sapiens, UniProt P20309), Ki = 316 pM

# value of Ki, Muscarinic acetylcholine receptor M3 (Homo sapiens, UniProt P20309), item COc1ccc([C@H](Cc2c(Cl)c[n+]([O-])cc2Cl)OC(=O)c2cccc(CN(C(=O)O[C@H]3CN4CCC3CC4)c3ccccc3)c2)cc1OC = 316 pM

Ki value, target or system Muscarinic acetylcholine receptor M3 (Homo sapiens, UniProt P20309), for O=C(O[C@@H](Cc1c(Cl)c[n+]([O-])cc1Cl)c1ccc(OC(F)F)c(OCC2CC2)c1)c1cccc(S(=O)(=O)NC(C(=O)O[C@H]2CN3CCC2CC3)c2ccccc2)c1 (stereo not given in full) : 1260 pM

Record O=C(O[C@@H](Cc1c(Cl)c[n+]([O-])cc1Cl)c1ccc(OC(F)F)c(OCC2CC2)c1)c1ccc(CN(C(=O)O[C@H]2CN3CCC2CC3)c2ccccc2F)s1 has Muscarinic acetylcholine receptor M3 (Homo sapiens, UniProt P20309) Ki equal to 200 pM

Item: COc1ccc([C@H](Cc2c(Cl)c[n+]([O-])cc2Cl)OC(=O)c2ccc(CN(C(=O)O[C@H]3CN4CCC3CC4)c3ccccc3)s2)cc1OC | System: Muscarinic acetylcholine receptor M3 (Homo sapiens, UniProt P20309) | Ki: 100 pM

###

molecular target: 3',5'-cyclic-AMP phosphodiesterase 4B (Homo sapiens); assay: Inhibition of human recombinant PDE4B2 assessed as […] in cAMP level incubated for 2 hrs by LANCE Ultra cAMP TR-FRET assay
Sequence (Q07343 whole entry): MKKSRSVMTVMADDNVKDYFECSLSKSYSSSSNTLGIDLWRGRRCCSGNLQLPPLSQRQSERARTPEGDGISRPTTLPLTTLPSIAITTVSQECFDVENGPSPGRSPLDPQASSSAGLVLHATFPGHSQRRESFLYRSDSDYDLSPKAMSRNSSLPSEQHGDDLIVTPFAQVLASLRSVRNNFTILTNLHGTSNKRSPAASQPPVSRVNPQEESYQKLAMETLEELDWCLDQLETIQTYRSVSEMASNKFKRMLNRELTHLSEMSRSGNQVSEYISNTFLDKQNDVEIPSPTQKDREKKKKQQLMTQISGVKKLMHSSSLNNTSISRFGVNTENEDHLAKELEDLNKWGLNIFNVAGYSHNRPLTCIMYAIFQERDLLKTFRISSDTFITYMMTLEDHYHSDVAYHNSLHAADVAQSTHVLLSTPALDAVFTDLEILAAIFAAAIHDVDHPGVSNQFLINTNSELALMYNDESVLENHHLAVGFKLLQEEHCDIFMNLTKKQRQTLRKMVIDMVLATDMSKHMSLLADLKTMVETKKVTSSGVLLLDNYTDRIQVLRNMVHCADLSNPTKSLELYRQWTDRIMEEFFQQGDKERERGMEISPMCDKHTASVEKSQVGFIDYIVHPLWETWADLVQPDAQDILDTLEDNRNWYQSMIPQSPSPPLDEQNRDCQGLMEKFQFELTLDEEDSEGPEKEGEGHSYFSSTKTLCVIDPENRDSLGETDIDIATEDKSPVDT
pIC50: −log10 of the molar value.
Rule: pIC50 under 9 gives n, otherwise y.

Example entries and their recorded answers appear below.
COc1ccc([C@H](Cc2c(Cl)c[n+]([O-])cc2Cl)OC(=O)c2ccc(CN(C)C(C(=O)O[C@H]3CN4CCC3CC4)c3ccccc3)s2)cc1OC (stereo in doubt; 92c) :: n
COc1ccc([C@H](Cc2c(Cl)c[n+]([O-])cc2Cl)OC(=O)c2ccc(CN(C(=O)O[C@H]3CN4CCC3CC4)c3cccc(C(F)F)c3)s2)cc1OC :: y
COc1ccc([C@H](Cc2c(Cl)c[n+]([O-])cc2Cl)OC(=O)c2cccc(CN(C(=O)O[C@H]3CN4CCC3CC4)c3ccccc3)c2)cc1OC :: n
COc1ccc([C@H](Cc2c(Cl)c[n+]([O-])cc2Cl)OC(=O)c2ccc(CN(C(=O)O[C@H]3CN4CCC3CC4)c3ccccc3F)s2)cc1OC :: y

Now for another entry.
Query: Evaluate COc1ccc([C@H](Cc2c(Cl)c[n+]([O-])cc2Cl)OC(=O)c2ccc(CN(C)C(C(=O)O[C@H]3CN4CCC3CC4)c3ccccc3)s2)cc1OC (stereo in doubt; 91c) : pIC50 at minimum 9?
Reply: n
